Test system: LOC_OS02G07810-cb001;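 further: purified Escherichia coli-expressed rice kinase domain construct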
measurement.notes: thermal shift delta Tm vs DMSO control; higher = stronger stabilization (binding)
test.parameters: 12.5 µM; protein concentration 2 µM
Entries and their measured thermal shift delta Tm follow.
measurement.name: thermal shift delta Tm (°C)

>  <compound>
COc1ccc(-c2ccc3ncc4c(c3c2)n(-c2ccc(N3CCNCC3)c(C(F)(F)F)c2)c(=O)n4C)cn1

>  <measurement.name>
thermal shift delta Tm

>  <recorded.number>
1.67

$$$$
>  <compound>
CCS(=O)(=O)Nc1ccc2c(c1)/C(=C(/Nc1ccc(CN3CCCCC3)cc1)c1ccccc1)C(=O)N2 [Hesperadin]

>  <measurement.name>
thermal shift delta Tm

>  <recorded.number>
1.1

$$$$
>  <compound>
Cc1cc(Nc2ncnc3ccc(NC4=NC(C)(C)CO4)cc23)ccc1Oc1ccn2ncnc2c1 [Irbinitinib (ARRY-380, ONT-380)]

>  <measurement.name>
thermal shift delta Tm

>  <recorded.number>
-0.86

$$$$
>  <compound>
Cn1sc(=O)n(Cc2ccccc2)c1=O

>  <measurement.name>
thermal shift delta Tm

>  <recorded.number>
2.24

$$$$
>  <compound>
CCn1c(-c2nonc2N)nc2cnc(Oc3cccc(NC(=O)c4ccc(OCCN5CCOCC5)cc4)c3)cc21

>  <measurement.name>
thermal shift delta Tm

>  <recorded.number>
0.95

$$$$
>  <compound>
Nc1ccc(-c2ccc3ncc4ccc(=O)n(-c5cccc(C(F)(F)F)c5)c4c3c2)cn1 [Torin 2]

>  <measurement.name>
thermal shift delta Tm

>  <recorded.number>
0.19

$$$$
>  <compound>
CNc1nc(-c2ccc3c(N)n[nH]c3c2)cc(N2C[C@@H](C(=O)NC3CCCCC3)CC[C@H]2C)n1

>  <measurement.name>
thermal shift delta Tm

>  <recorded.number>
1.63

$$$$
>  <compound>
CCn1c(=O)c(-c2ccc(-c3cncs3)cc2Cl)cc2cnc(Nc3ccc(N4CCN(C)CC4)cc3)nc21

>  <measurement.name>
thermal shift delta Tm

>  <recorded.number>
0.59

$$$$
